Assay: Microsomal stability
Format: in vitro ADME, human
Details: 1 x 10^-6 M test compound, human liver microsomes 0.3 mg/ml, mean of two experiments
Protocol: The percentage of the test compound remaining in the sample after 1 hour was measured in order to determine the rate of metabolism of test compound. The results are shown in Table 3, which gives the results for two experiments and the mean value obtained.
Attribute Measured: Mean Parent remaining (%)

P: Cc1c(Cc2cccn2S(=O)(=O)c2ccccc2)c2cc(F)ccc2n1CC(=O)O
Q: Cc1c(Cc2ccncc2S(=O)(=O)c2ccccc2)c2cc(F)ccc2n1CC(=O)O
Parameter metric = Mean Parent remaining (%). Return the lower-valued option from P and Q . Answer by quoting the chosen item's label. P
(P: 24%, Q: 69%)

Origin of values: patent US8536158B2
